test system: MERS Coronavirus strain EMC; experiment: microbe, parasite or virus in culture; format: cell-based; details: Middle East respiratory syndrome-related coronavirus

| compound | units_of_measure | EC50 |
| --- | --- | --- |
| CCc1ncnc2c1ccn2[C@@H]1O[C@H](CO)[C@@H](O)[C@H]1O [Compound 11d] | µM | 9.2 |

* * *

test: in vitro; details: human
experimental_endpoint: CC50

| compound | experimental_endpoint | observed |
| --- | --- | --- |
| NC(=O)c1ncn([C@@H]2O[C@H](CO)[C@@H](O)[C@H]2O)n1 [Ribavirin, reference compound] | CC50 | > 1000 µM |
| CCc1ncnc2c1ccn2[C@@H]1O[C@H](CO)[C@@H](O)[C@H]1O [Compound 11d] | CC50 | > 100 µM |

* * *

assay: Cytotoxicity (CC50) determined in parallel in uninfected cells (β-actin toxicity); details: human, uninfected cells
experimental_endpoint: CC50

| compound | observed |
| --- | --- |
| OC[C@H]1O[C@@H](n2ccc3c(C4CCCCC4)ncnc32)[C@H](O)[C@@H]1O [Compound 11l] | 42.4 µM |
| CCc1ccc(-c2ncnc3c2ccn3[C@@H]2O[C@H](CO)[C@@H](O)[C@H]2O)cc1 [Compound 11q] | > 100 µM |
| OC[C@H]1O[C@@H](n2ccc3c(-c4ccccc4)ncnc32)[C@H](O)[C@@H]1O [Compound 11o] | > 100 µM |
| CCCCCc1ncnc2c1ccn2[C@@H]1O[C@H](CO)[C@@H](O)[C@H]1O [Compound 11f] | > 100 µM |
| C[C@@]1(O)[C@H](O)[C@@H](CO)O[C@H]1n1ccc(N)nc1=O [2’Cmethyl Cytidine, 2′-C-Methyl-cytidine, reference compound] | > 25 µM |
| CCCCCCc1ncnc2c1ccn2[C@@H]1O[C@H](CO)[C@@H](O)[C@H]1O [Compound 11g] | 62.3 µM |
| CC(C)Cc1ncnc2c1ccn2[C@@H]1O[C@H](CO)[C@@H](O)[C@H]1O [Compound 11i] | > 100 µM |

* * *

As an illustration, consider measured CC50 for compounds on uninfected cells.
experimental_endpoint: CC50

| compound | target_or_system | observed |
| --- | --- | --- |
| OC[C@H]1O[C@@H](n2ccc3c(C4CC4)ncnc32)[C@H](O)[C@@H]1O [Compound 11j] | uninfected cells | > 100 µM |
| CC(C)c1ccc(-c2ncnc3c2ccn3[C@@H]2O[C@H](CO)[C@@H](O)[C@H]2O)cc1 [Compound 11m] | uninfected cells | > 100 µM |

* * *

Reported values of pEC50 for individual entries
tested on: Influenza A virus strain California/07/2009; assay: Inhibition of in vitro replication of Influenza A virus; type: cell-based; conditions: Influenza A virus strain California/07/2009
pEC50: −log10 of the molar value.

| compound | pEC50 |
| --- | --- |
| NC(=O)c1ncn([C@@H]2O[C@H](CO)[C@@H](O)[C@H]2O)n1 [Ribavirin, reference compound] | 5.44 |
| CCc1ncnc2c1ccn2[C@@H]1O[C@H](CO)[C@@H](O)[C@H]1O [Compound 11d] | 6.38 |
